B1: HHH_rd2_0155 (parent)
chain: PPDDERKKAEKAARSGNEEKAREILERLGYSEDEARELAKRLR

variants of: B1; experiment: folding stability dG (cDNA display proteolysis); higher = more stable; settings: PBS, room temperature
For each of the variants below, state its folding stability dG.
Answers are plain numbers, in kcal/mol.

I need folding stability dG for every entry listed below, if you could help.
1. RPDDERKKAEKAARSGNEEKAREILERLGYSEDEARELAKRLR [P1R]
2. PPDDERKKAEVAARSGNEEKAREILERLGYSEDEARELAKRLR [K11V]
3. PPDDERKKKEKAARSGNEEKAREILERLGYSEDEARELAKRLR [A9K]

1. 2.21
2. 2.19
3. 0.809

Recorded values, source the MegaScale stability set (Tsuboyama et al. 2023).
